Papp B→A values by entry
- Test system: MDR1 (P-gp)
- experimental protocol: Apparent permeability from basolateral to apical side in dog MDCK-MDR1 cells
- Type: ADME, cell-based, Canis lupus familiaris
measured property: Papp B→A (×10⁻⁶ cm/s)

In [3]: df
Out[3]:
                                test_smiles  measured_property  readout_number
0  C=CC(=O)NCCCC[C@H](NC(=O)Cc1ccccc1F)C(=O)N1CCN(C(=O)c2cccc3ccccc23)CC1           Papp B→A            18.2
1  C=CC(=O)NCCCC[C@H](NC(=O)Cc1ccccc1C)C(=O)N1CCN(C(=O)c2cccc3ccccc23)CC1           Papp B→A            16.5
